Target: BaPDH (prephenate dehydrogenase from Bacillus anthracis) (Bacillus anthracis, UniProt Q81P63)
Sequence (Q81P63 1-378): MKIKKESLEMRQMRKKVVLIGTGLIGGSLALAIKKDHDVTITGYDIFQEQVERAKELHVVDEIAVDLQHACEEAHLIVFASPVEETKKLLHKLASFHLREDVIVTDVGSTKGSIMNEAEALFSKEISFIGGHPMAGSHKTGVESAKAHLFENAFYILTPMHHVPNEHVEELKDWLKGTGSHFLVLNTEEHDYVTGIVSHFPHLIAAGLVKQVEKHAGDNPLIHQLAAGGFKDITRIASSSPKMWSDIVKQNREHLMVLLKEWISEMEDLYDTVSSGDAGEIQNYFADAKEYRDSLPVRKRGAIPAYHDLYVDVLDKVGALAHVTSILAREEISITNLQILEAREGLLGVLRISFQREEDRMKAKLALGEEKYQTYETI
Type: binding
# key: entry, value: Tm

{"compound": "NC(=O)c1ccc[n+]([C@@H]2O[C@H](COP(=O)([O-])OP(=O)(O)OC[C@H]3O[C@@H](n4cnc5c(N)ncnc54)[C@H](O)[C@@H]3O)[C@@H](O)[C@H]2O)c1 [NAD^+]", "Tm / °C": 41}
{"compound": "N[C@@H](Cc1ccc(O)cc1)C(=O)O [Tyrosine, L-tyrosine]", "Tm / °C": 51}
{"compound": "NC(=O)c1ccc[n+]([C@@H]2O[C@H](COP(=O)([O-])OP(=O)(O)OC[C@H]3O[C@@H](n4cnc5c(N)ncnc54)[C@H](OP(=O)(O)O)[C@@H]3O)[C@@H](O)[C@H]2O)c1 [NADP^+]", "Tm / °C": 41}
{"compound": "NC(=O)C1=CN([C@@H]2O[C@H](COP(=O)(O)OP(=O)(O)OC[C@H]3O[C@@H](n4cnc5c(N)ncnc54)[C@H](O)[C@@H]3O)[C@@H](O)[C@H]2O)C=CC1 [NADH]", "Tm / °C": 43}
{"compound": "NC(=O)C1=CN([C@@H]2O[C@H](COP(=O)(O)OP(=O)(O)OC[C@H]3O[C@@H](n4cnc5c(N)ncnc54)[C@H](OP(=O)(O)O)[C@@H]3O)[C@@H](O)[C@H]2O)C=CC1 [NADPH]", "Tm / °C": 40}
